- Assay Info: In Vivo Pharmacokinetics (rat)
- Set-up: species or system Sprague Dawley rats
- Run Parameters: male, Sprague Dawley, plasma, PO 3.0 mg/kg
Listing of entries alongside the reported AUC.

Field: example entries. Status: answers known.
COC(=O)N[C@@H]1CC[C@@H](n2c(=O)n(C)c3cnc4[nH]c(-c5ccc(CN(C)C)cc5)c(-c5ccc(F)cc5)c4c32)C1 : 0.5 to 1.5 µM·h
[2H]C([2H])([2H])n1ncc2cc(-c3c(-c4cn(C)nc4OC)[nH]c4ncc5c(c34)n(C3CCOCC3)c(=O)n5C)ccc21 [Comparative Example B, reference compound] : > 1.5 µM·h
[2H]C([2H])([2H])n1c(=O)n([C@@H]2CC[C@@H](NC(=O)OC)C2)c2c3c(-c4ccc5c(c4)COC5(C)C)c(-c4ccc(C(=O)N(C)C)cc4)[nH]c3ncc21 : ≤ 0.5 µM·h
[2H]C([2H])([2H])N(Cc1ccc(-c2[nH]c3ncc4c(c3c2-c2ccc(OCCOC)cc2)n([C@@H]2CC[C@@H](NC(=O)OC)C2)c(=O)n4C([2H])([2H])[2H])cc1)C([2H])([2H])[2H] : 0.5 to 1.5 µM·h
[2H]C([2H])([2H])N(Cc1ccc(-c2[nH]c3ncc4c(c3c2-c2ccc3c(c2)CC(C)(C)O3)n([C@@H]2CC[C@@H](NC(=O)OC)C2)c(=O)n4C([2H])([2H])[2H])cc1)C([2H])([2H])[2H] : 0.5 to 1.5 µM·h
[2H]C([2H])([2H])N(Cc1ccc(-c2[nH]c3ncc4c(c3c2-c2ccc3c(c2)COC3(C)C)n([C@@H]2CC[C@@H](NC(=O)OC)C2)c(=O)n4C([2H])([2H])[2H])cc1)C([2H])([2H])[2H] : ≤ 0.5 µM·h

// next entry
Lookup: Dear colleague, I am looking for the recorded AUC of the following compound: "[2H]C([2H])([2H])n1c(=O)n([C@@H]2CC[C@@H](NC(=O)OC)C2)c2c3c(-c4ccc5c(cnn5C(C)C)c4)c(-c4ccc(CN(C)C)cc4)[nH]c3ncc21"
Found: ≤ 0.5 µM·h

* * *

Listing of entries alongside the reported IC50.
- System: catalytic domain (JH1) of human JAK2 (Homo sapiens (Human), UniProt O60674)
- Sequence (O60674 826-1132): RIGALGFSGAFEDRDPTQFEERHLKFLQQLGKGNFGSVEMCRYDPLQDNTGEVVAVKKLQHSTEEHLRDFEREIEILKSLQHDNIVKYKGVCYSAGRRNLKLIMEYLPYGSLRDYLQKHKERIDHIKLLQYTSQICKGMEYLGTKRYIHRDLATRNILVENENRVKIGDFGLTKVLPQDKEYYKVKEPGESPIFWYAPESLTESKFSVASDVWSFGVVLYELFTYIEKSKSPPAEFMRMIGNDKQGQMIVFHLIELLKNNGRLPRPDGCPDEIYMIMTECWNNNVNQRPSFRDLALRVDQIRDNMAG
- Assay Info: JAK2 LanthaScreen JH1 Binding Assay
- Run Parameters: read-out: JH1 Bind IC50

Lookup: Dear colleague, I am looking for the recorded IC50 of the following molecule: "COC(=O)N[C@@H]1CC[C@@H](n2c(=O)n(C)c3cnc4[nH]c(-c5ccc(C(=O)NC(C)C)c(F)c5)c(-c5cccc(F)c5)c4c32)C1"
Found: > 1 µM

Lookup: Dear colleague, I am looking for the recorded IC50 of the following molecule: "COCCN(C)C(=O)c1ccc(-c2[nH]c3ncc4c(c3c2-c2ccc3c(cnn3C(C)C)c2)n([C@@H]2CC[C@@H](NC(=O)OC)C2)c(=O)n4C)cc1F"
Found: > 1 µM

Lookup: Dear colleague, I am looking for the recorded IC50 of the following molecule: "CNC(=O)c1ccc(-c2[nH]c3ncc4c(c3c2-c2ccc3c(cnn3C(C)C)c2)n([C@@H]2CC[C@@H](NC(=O)OC)C2)c(=O)n4C)cc1F"
Found: > 1 µM

* * *

- System: catalytic domain (JH1) of human JAK2 (Homo sapiens (Human), UniProt O60674)
- Assay Info: JAK2 LanthaScreen JH1 Binding Assay
- Run Parameters: read-out: JH1 Bind IC50
Measurement Kind: IC50

Field: example entries. Status: answers known.
COC(=O)N[C@@H]1CC[C@@H](n2c(=O)n(C)c3cnc4[nH]c(-c5ccc(C(=O)NC6(C(F)(F)F)CC6)c(F)c5)c(-c5ccc6c(cnn6C(C)C)c5)c4c32)C1 : > 1000 nM
COC(=O)N[C@@H]1CC[C@@H](n2c(=O)n(C)c3cnc4[nH]c(-c5ccc(CN(C)C)cc5)c(-c5ccc(F)cc5)c4c32)C1 : > 1000 nM

// next entry
Lookup: Dear colleague, I am looking for the recorded IC50 of the following compound: "COC(=O)N[C@@H]1CC[C@@H](n2c(=O)n(C)c3cnc4[nH]c(-c5ccc(C(=O)N(C)C)cc5)c(-c5ccc6c(cnn6C(C)C)c5)c4c32)C1"
Found: > 1000 nM
